As shown below, each of these molecules has a reported inhibition at 50 µM value.
System: PAF-induced platelet aggregation
Assay: Platelet aggregation assay: inhibition of platelet aggregation induced by PAF (in vitro)
Format: cell-based
Details: Homo sapiens, concentration 50 μM
Enter the number, and then the unit.

Some solved entries appear below for comparison.
O=C(c1cc[n+]([O-])cc1)N1CCC(C(O)(c2ccc(Cl)cc2)c2cccs2)CC1 (stereo not drawn) [Formula 1.0A8]; 89%
O=C(c1cc[n+]([O-])cc1)N1CCC(C(O)(c2ccc(Cl)cc2)c2ccccn2)CC1 (stereo not drawn) [Formula 1.0A3]; 92%
[O-][n+]1ccc(CN2CCC(C(O)(c3ccc(Cl)cc3)c3cccs3)CC2)cc1 (stereo not drawn) [Formula 1.0A9]; 100%

Incoming: # return recorded inhibition at 50 µM for entry O=C(c1cc[n+]([O-])cc1)N1CCC(C(O)(c2ccccn2)c2nccs2)CC1 (stereo not drawn) [Formula 1.0A12]
Outgoing: 100%

Incoming: # return recorded inhibition at 50 µM for entry O=C(c1cc[n+]([O-])cc1)N1CCC(C(O)(c2ccc(Cl)cc2)c2nccs2)CC1 (stereo not drawn) [Formula 1.0A10]
Outgoing: 86%

Incoming: # return recorded inhibition at 50 µM for entry [O-][n+]1ccc(CN2CCC(C(O)(c3ccc(Cl)cc3)c3nccs3)CC2)cc1 (stereo not drawn) [Formula 1.0A11]
Outgoing: 83%
